Tested on: LOX IMVI melanoma
experimentSummary: NCI-60 one-dose screen, 48 h (100 = growth as untreated, 0 = no growth, -100 = all killed)
protocolConditions: 10 µM unless noted
The panel holds about 83,000 compounds, 20% with a hit somewhere; the sample as a whole holds those more often.
Would you mind telling me the reported growth of each entry?
One number for each entry, in %.

Completed entries (count: 6):
compound	testResult
CC[C@H](C)[C@H](NC(=O)c1ccccn1)C(=O)N(C)[C@H](C[C@@H](OC(C)=O)c1nc(C(=O)N[C@@H](Cc2ccccc2)C[C@H](C)C(=O)OC)cs1)C(C)C	29.1
COc1ccc(S(=O)(=O)Nc2c(/C=C\c3cc(OC)c(OC)c(OC)c3)ccc(OC)c2O)cc1OC	21.6
C=C1[C@@H](C)[C@H]2[C@H](Cc3ccccc3)NC(=O)[C@]23[C@@H](O)/C=C/[C@@](C)(O)C(=O)[C@@H](C)C/C=C/[C@H]3[C@@H]1O	27.1
COc1cccc2c1c(C(=O)c1ccco1)cn2Cc1ccc(F)cc1	109
C=COC(=O)CCN1CC1	100
NC(=O)C(Br)c1ccccc1 (stereo not given)	56.8

# batch size: 7; output growth per entry
1. C=CCn1cc(C=C2C(=O)N(C)C(=O)N(C)C2=O)c2ccccc21
2. COc1cc2c(cc1OCCCCCn1c(-c3ccco3)nc3ccccc31)N=C[C@@H]1CCCN1C2=O
3. COC(=O)[C@@]1(C)CC[C@]2(C)CC[C@]3(C)C4=CC=C5C(=CC(=O)C(O)=C5C)[C@]4(C)CC[C@@]3(C)[C@@H]2C1
4. COc1ccc(/C=C\c2cc(OC)c(OC)c(OC)c2)c(NS(=O)(=O)c2ccc(C)cc2)c1O
5. CC(=O)OC1CCC2(C)C(CCC3C2CC(=O)C2(C)C3CC(Sc3ccc(N(CCCl)CCCl)cc3)C2C(C)=O)C1 (stereo not given)
6. Cc1ccc2c(C(C[N+](=O)[O-])c3cccs3)c(-c3ccccc3)[nH]c2c1 (stereo not given)
7. CN1C(=O)C23CC4(C56CC78SSC(CO)(C(=O)N7C5Nc5ccccc56)N(C)C8=O)c5ccccc5NC4N2C(=O)C1(CO)SS3 (stereo not given)

1. 94.8
2. -31.6
3. -90.5
4. 18.3
5. 55.1
6. 31.7
7. -93.6

# batch size: 7; output growth per entry
1. O=C(CC1(O)C(=O)N(Cc2ccccc2)c2ccc(Cl)cc21)c1ccc(C(=O)NCC2CCC3(CC2)OOC2(CCCCC2)OO3)cc1 (stereo not given)
2. CC(=O)O[C@H]1CC[C@H]2[C@@H]3CC=C4c5nc(-c6ccccc6)sc5CC[C@]4(C)[C@H]3CC[C@]12C
3. c1ccc(CSC(c2ccccc2)c2ccccc2)cc1
4. O=C1C2C(C(=O)[N]1[Hg][c]1ccccc1)C1(Cl)C(Cl)=C(Cl)C2(Cl)C1(Cl)Cl (stereo not given)
5. CCCCCCCC(=O)OCC(=O)[C@]1(O)Cc2c(O)c3c(c(O)c2[C@@H](OC2CC(N)C(O)C(C)O2)C1)C(=O)c1c(OC)cccc1C3=O (stereo not given in full)
6. Cc1ccccc1NC(=NCCCN1CC1)Nc1ccccc1C
7. Cc1ccc(C(Cc2ccccc2)NCCO)cc1 (stereo not given)

1. -78.5
2. 29.8
3. 100
4. -82.8
5. -4.4
6. 75.3
7. 100

# batch size: 8; output growth per entry
1. O=[N+]([O-])c1cc([N+](=O)[O-])c(Cl)cc1Cl
2. O=[N+]([O-])c1ccc(OP(=O)(CCl)N(CCCl)CCCl)cc1 (stereo not given)
3. Nc1c(F)cc(-c2nc3cc(F)ccc3[se]2)cc1Br
4. O=P(Oc1ccc(Cl)cc1)(N1CC1)N1CC1
5. O=C(O)C(O)C(O)C1[O][Sb]([c]2ccc([N+](=O)[O-])cc2)[O]C1CO (stereo not given)
6. CC(=O)O[C@H](C[C@H](C(C)C)N(C)C(=O)[C@@H](NC(=O)[C@H]1CCCN1C)C(C)C)c1nc(C(=O)N[C@@H](Cc2ccccc2)C[C@H](C)C(=O)O)c(C)s1
7. C/C1=C/C(=O)O[C@@H]2C[C@@H](CC[C@H](C)/C=C\C=C\CC1)O[C@@](O)([C@@H]1CSC(=O)N1CO)C2
8. COC(=O)[C@]12CCC(C)(C)C[C@H]1[C@H]1C(=O)C[C@@H]3[C@@]4(C)C[C@@]5(CC(C)(C)[C@@H]4CC[C@@]3(C)[C@]1(C)CC2)OO[C@@](C)(C(F)(F)F)O5

[-91.1, 98.4, 90.1, 83.1, 101, 27.4, 7.38, 95.7]

# batch size: 3; output growth per entry
1. O=C(Nc1ccc(Br)cc1)c1cc(Br)cc(Br)c1O
2. ClCCN(CCCl)c1ccc(/C=N/Nc2ncnc3nc[nH]c23)cc1
3. COc1ccc(C/C(C)=C(\c2ccc(OCCN3CCOCC3)cc2)c2ccc(OC(=O)Cc3ccccc3)cc2)cc1

1: -7.5; 2: 65.8; 3: -94.1

# batch size: 4; output growth per entry
1. O=[N+]([O-])CC(O)C(Cl)(Cl)Cl (stereo not given)
2. COc1ccc2c(c1)c(-c1nc(-c3c[nH]c4ncccc34)cs1)cn2CCCCN1CCCCC1
3. Cc1sc2c(c1C)C(c1ccc(Cl)cc1)=N[C@@H](CC(=O)OC(C)(C)C)c1nnc(C)n1-2
4. CCCCCSC1C2C(=O)C(Br)=CC13CCNc1c(O)c4c5c(c13)=[N+]2CCC=5C=N4 (stereo not given)

[99.8, -83.1, 7.81, -71]
